Answer each item with its documented protein stability index.
B1: RIPK4 (parent)
chain: RERMELLEEAKKMEMAKFRYILPV

Variants of: B1
procedure-details: protein stability index of a GFP-peptide fusion (GPS, HEK-293T) (PSI 1-6); higher = more stable;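 note: lentivirally expressed fusions sorted by FACS into six bins by GFP to DsRed ratio, PSI derived from sequencing read proportions per bin multiplied by bin number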
particulars: c terminus: a fixed tail appended
Give a plain numeric answer without units written out.

Prompt: Look up and state reported protein stability index for L7A
Response: 3.35

Prompt: Look up and state reported protein stability index for F18K
Response: 4.06

Prompt: Look up and state reported protein stability index for A16W
Response: 2.58

Prompt: Look up and state reported protein stability index for E14P
Response: 3.29

Prompt: Look up and state reported protein stability index for K17S
Response: 2.99

Prompt: Look up and state reported protein stability index for I21G
Response: 3.68

Prompt: Look up and state reported protein stability index for L6A
Response: 3.19

Prompt: Look up and state reported protein stability index for M13T
Response: 3.06

Prompt: Look up and state reported protein stability index for E5G
Response: 2.6

Prompt: Look up and state reported protein stability index for E5C
Response: 2.63

Prompt: Look up and state reported protein stability index for R3F
Response: 2.58

Prompt: Look up and state reported protein stability index for L6H
Response: 3.87

Prompt: Look up and state reported protein stability index for A10M
Response: 3.32

Prompt: Look up and state reported protein stability index for M15V
Response: 3.02

Prompt: Look up and state reported protein stability index for R19K
Response: 3.04

Prompt: Look up and state reported protein stability index for A10C
Response: 4.69

Prompt: Look up and state reported protein stability index for M13E
Response: 3.19

Prompt: Look up and state reported protein stability index for K17N
Response: 1.01

Prompt: Look up and state reported protein stability index for E5R
Response: 2.97

Prompt: Look up and state reported protein stability index for Y20C
Response: 2.67

Prompt: Look up and state reported protein stability index for K17M
Response: 3.5

Prompt: Look up and state reported protein stability index for E2H
Response: 2.75

Prompt: Look up and state reported protein stability index for M13Y
Response: 2.92

Prompt: Look up and state reported protein stability index for K12A
Response: 3.43

Prompt: Look up and state reported protein stability index for Y20M
Response: 2.18

Prompt: Look up and state reported protein stability index for L7K
Response: 3.99

Prompt: Look up and state reported protein stability index for E5P
Response: 3.01

Prompt: Look up and state reported protein stability index for F18M
Response: 2.75

Prompt: Look up and state reported protein stability index for L7Y
Response: 2.52

Prompt: Look up and state reported protein stability index for F18P
Response: 3.86

Prompt: Look up and state reported protein stability index for M13Q
Response: 3.31

Prompt: Look up and state reported protein stability index for E9L
Response: 1.94

Prompt: Look up and state reported protein stability index for L6M
Response: 3.77

Prompt: Look up and state reported protein stability index for E14D
Response: 3.8

Prompt: Look up and state reported protein stability index for K12C
Response: 3.35

Prompt: Look up and state reported protein stability index for E5F
Response: 2.81

Prompt: Look up and state reported protein stability index for E5K
Response: 2.36

Prompt: Look up and state reported protein stability index for V24S
Response: 3.7

Prompt: Look up and state reported protein stability index for R3G
Response: 2.58

Prompt: Look up and state reported protein stability index for L6W
Response: 3

Prompt: Look up and state reported protein stability index for A10W
Response: 3.58

Prompt: Look up and state reported protein stability index for R3S
Response: 3.85

Prompt: Look up and state reported protein stability index for R1D
Response: 4.22

Prompt: Look up and state reported protein stability index for I21H
Response: 2.94

Prompt: Look up and state reported protein stability index for E8W
Response: 3.05

Prompt: Look up and state reported protein stability index for R1E
Response: 3.99
